koff listing for selected binders.
target: Recombinant human his-tagged IGF 1R extracellular domain protein (human) (UniProt P08069)
experimentalDetails: SPR, captured antibody, dissociation at pH 6

binder | koff
VRDN-03108 (antibody, V domains shown) VH: QVQLVESGGGVVQPGRSLRLSCAASGFTFSSYSMHWVRQAPGKGLEWVAIIWFDGSSKYYVDSVKGRFTISRDNSKNTLYLQMNSLRAEDTAVYYCARELGRRYFDIWGRGTLVTVSS VL: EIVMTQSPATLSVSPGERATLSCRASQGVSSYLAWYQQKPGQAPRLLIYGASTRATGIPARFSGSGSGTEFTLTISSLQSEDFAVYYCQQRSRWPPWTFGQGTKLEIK | 0.000413 s⁻¹
VRDN-03112 (antibody, V domains shown) VH: QVQLVESGGGVVQPGRSLRLSCAASGFTFSDYTMHWVRQAPGKGLEWVAIIWFDGSSKYYPGSVKGRFTISRDNSKNTLYLQMNSLRAEDTAVYYCARELGRRYFDIWGRGTLVTVSS VL: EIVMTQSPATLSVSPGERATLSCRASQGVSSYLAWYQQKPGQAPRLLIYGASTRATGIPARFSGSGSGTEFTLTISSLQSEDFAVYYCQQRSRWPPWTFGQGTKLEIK | 0.000463 s⁻¹
VRDN-03099 (antibody, V domains shown) VH: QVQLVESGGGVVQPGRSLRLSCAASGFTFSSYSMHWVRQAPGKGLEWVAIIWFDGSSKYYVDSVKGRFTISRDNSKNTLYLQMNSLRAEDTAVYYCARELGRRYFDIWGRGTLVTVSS VL: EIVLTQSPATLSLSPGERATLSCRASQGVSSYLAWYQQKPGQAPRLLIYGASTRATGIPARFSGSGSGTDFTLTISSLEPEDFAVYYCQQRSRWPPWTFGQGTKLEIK | 0.000296 s⁻¹
VRDN-03106 (antibody, V domains shown) VH: QVQLVESGGGVVQPGRSLRLSCAASGFTFSDHYMDWVRQAPGKGLEWVAIIWFDGSSKYYPGSVKGRFTISRDNSKNTLYLQMNSLRAEDTAVYYCARELGRRYFDIWGRGTLVTVSS VL: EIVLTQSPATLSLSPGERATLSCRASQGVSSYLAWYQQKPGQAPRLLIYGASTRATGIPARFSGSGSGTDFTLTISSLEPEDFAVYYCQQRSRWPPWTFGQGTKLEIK | 0.00218 s⁻¹
VRDN-03051 (antibody, V domains shown) VH: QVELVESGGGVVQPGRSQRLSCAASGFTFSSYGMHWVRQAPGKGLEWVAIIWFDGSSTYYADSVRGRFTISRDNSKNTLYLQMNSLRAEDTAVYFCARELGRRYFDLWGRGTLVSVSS VL: EIVLTQSPATLSLSPGERATLSCRASQSVSSYLAWYQQKPGQAPRLLIYDAHKRATGIPARFSGSGSGTDFTLTISSLEPEDFAVYYCQQRSKWPPWTFGQGTKVESK | 0.000162 s⁻¹
VRDN-03039 (antibody, V domains shown) VH: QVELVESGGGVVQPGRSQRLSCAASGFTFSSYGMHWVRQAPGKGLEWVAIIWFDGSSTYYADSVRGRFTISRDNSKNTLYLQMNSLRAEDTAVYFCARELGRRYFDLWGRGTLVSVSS VL: EIVLTQSPATLSLSPGERATLSCRHSQSVSSYLAWYQQKPGQAPRLLIYDASKRATGIPARFSGSGSGTDFTLTISSLEPEDFAVYYCQQRSKWPPWTFGQGTKVESK | 0.00563 s⁻¹
VRDN-03046 (antibody, V domains shown) VH: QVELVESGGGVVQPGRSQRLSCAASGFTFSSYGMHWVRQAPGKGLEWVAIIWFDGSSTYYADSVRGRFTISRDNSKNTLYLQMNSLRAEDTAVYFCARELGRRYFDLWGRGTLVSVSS VL: EIVLTQSPATLSLSPGERATLSCRASQSVSSHLAWYQQKPGQAPRLLIYDASKRATGIPARFSGSGSGTDFTLTISSLEPEDFAVYYCQQRSKWPPWTFGQGTKVESK | 0.000159 s⁻¹
VRDN-03044 (antibody, V domains shown) VH: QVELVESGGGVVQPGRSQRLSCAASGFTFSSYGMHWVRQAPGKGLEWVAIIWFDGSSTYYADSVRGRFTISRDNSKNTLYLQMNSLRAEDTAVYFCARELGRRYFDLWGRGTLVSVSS VL: EIVLTQSPATLSLSPGERATLSCRASQSVHSYLAWYQQKPGQAPRLLIYDASKRATGIPARFSGSGSGTDFTLTISSLEPEDFAVYYCQQRSKWPPWTFGQGTKVESK | 0.000217 s⁻¹
VRDN-03042 (antibody, V domains shown) VH: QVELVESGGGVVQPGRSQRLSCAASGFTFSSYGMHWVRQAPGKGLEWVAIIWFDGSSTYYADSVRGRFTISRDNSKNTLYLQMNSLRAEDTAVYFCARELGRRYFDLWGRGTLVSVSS VL: EIVLTQSPATLSLSPGERATLSCRASQHVSSYLAWYQQKPGQAPRLLIYDASKRATGIPARFSGSGSGTDFTLTISSLEPEDFAVYYCQQRSKWPPWTFGQGTKVESK | 9.44e-05 s⁻¹
VRDN-03043 (antibody, V domains shown) VH: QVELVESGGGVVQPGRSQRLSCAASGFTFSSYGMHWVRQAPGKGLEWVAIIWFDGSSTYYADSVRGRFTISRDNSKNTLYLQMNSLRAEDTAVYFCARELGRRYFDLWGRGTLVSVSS VL: EIVLTQSPATLSLSPGERATLSCRASQSHSSYLAWYQQKPGQAPRLLIYDASKRATGIPARFSGSGSGTDFTLTISSLEPEDFAVYYCQQRSKWPPWTFGQGTKVESK | 0.0253 s⁻¹
